test system: TK-10; experiment: cells; assay type: functional, cell-based, Homo sapiens; conditions: Homo sapiens, TK-10;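 also: growth inhibition of TK-10 cells, read out in a cell viability assay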
Description: SANGER: Inhibition of human TK10 cell growth in a cell viability assay.
RESULT TYPE: IC50

Guide cases for IC50, answers given:
| COMPOUND | RESULT TYPE | OBSERVED |
| --- | --- | --- |
| Cn1cc(C2=C(c3ccc(Cl)cc3Cl)C(=O)NC2=O)c2ccccc21 | IC50 | > 10 µM |
| COC(=O)CNC(=O)C(=O)OC | IC50 | 355 µM |
| Cc1cc(Nc2cc(N3CCN(C)CC3)nc(Sc3ccc(NC(=O)C4CC4)cc3)n2)n[nH]1 | IC50 | > 2 µM |
| O=C(/C=C/c1ccccc1)NC(NC(=S)Nc1cccc2cccnc12)C(Cl)(Cl)Cl (centres undefined) | IC50 | > 16 µM |
| Cc1cnc(-c2cnc(NCCNc3ccc(C#N)cn3)nc2-c2ccc(Cl)cc2Cl)[nH]1 | IC50 | > 2.56 µM |

Noted for O=C(NOCC1CC1)c1ccc(F)c(F)c1Nc1ccc(I)cc1Cl : its IC50 reads 6.33 µM

Noted for C[C@]1(O)C[C@@H](c2nc(-c3ccc4ccc(-c5ccccc5)nc4c3)c3c(N)nccn32)C1 : its IC50 reads > 2.56 µM

Noted for CCOc1nc(NC(=O)Cc2cc(OC)ccc2OC)cc(N)c1C#N : its IC50 reads > 10 µM

Noted for Nc1ccn([C@@H]2O[C@H](CO)[C@@H](O)[C@@H]2O)c(=O)n1 : its IC50 reads 1.73 µM

* * *

tested on: IA-LM; assay: cells; type: functional, cell-based, Homo sapiens; conditions: Homo sapiens, IA-LM;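 also: cell viability assay measuring growth inhibition of human IA-LM cells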
Description: SANGER: Inhibition of human IA-LM cell growth in a cell viability assay.
Each record here notes measured IC50.
A number alone suffices; assume nM.

Guide cases for IC50, answers given:
| MOLECULE | IC50 [nM] |
| --- | --- |
| CCC1=C[C@@H]2CN(C1)Cc1c([nH]c3ccccc13)[C@@](C(=O)OC)(c1cc3c(cc1OC)N(C)[C@H]1[C@@](O)(C(=O)OC)[C@H](OC(C)=O)[C@]4(CC)C=CCN5CC[C@]31[C@@H]54)C2 | 3.71 |
| COc1ccc(-c2ccc3c(N4CCOC[C@@H]4C)nc(N4CCOC[C@@H]4C)nc3n2)cc1CO | 596 |
| Cc1ccc(Nc2nccc(N(C)c3ccc4c(C)n(C)nc4c3)n2)cc1S(N)(=O)=O | 7930 |

Please look at the following molecule next.
Noted for COc1cc([C@@H]2c3cc4c(cc3[C@@H](O[C@@H]3O[C@@H]5CO[C@@H](C)O[C@H]5[C@H](O)[C@H]3O)[C@H]3COC(=O)[C@H]23)OCO4)cc(OC)c1O [ETOPOSIDE] : its IC50 reads 3440

* * *

system: CTB-1; assay: cells; type: functional, cell-based; conditions: Homo sapiens
Description: SANGER: Inhibition of human CTB-1 cell growth in a cell viability assay.
RESULT TYPE: IC50

| TEST SMILES | IC50 |
| --- | --- |
| Cc1cc([C@@H](C)Nc2ccccc2C(=O)O)c2nc(N3CCOCC3)cc(=O)n2c1 | > 5120 nM |
| Cc1cc(Nc2cc(N3CCN(C)CC3)nc(Sc3ccc(NC(=O)C4CC4)cc3)n2)n[nH]1 | > 2000 nM |
| CCc1nc(N)nc(N)c1-c1ccc(Cl)cc1 | > 20000 nM |

Noted for COc1ccc(C2=N[C@@H](c3ccc(Cl)cc3)[C@@H](c3ccc(Cl)cc3)N2C(=O)N2CCNC(=O)C2)c(OC(C)C)c1 : its IC50 reads 2020 nM
